Assay: maximum solubility in NMP
Assay type: physicochemical
Conditions: organic solvent or mixture; in NMP (N-methylpyrrolidin-2-one)
property: solubility

What value of solubility has been reported for the following molecule? `CC(=O)O[C@H]1C(=O)[C@@]2(C)[C@H]([C@H](OC(=O)c3ccccc3)[C@]3(O)C[C@H](OC(=O)[C@H](O)[C@@H](NC(=O)c4ccccc4)c4ccccc4)C(C)=C1C3(C)C)[C@]1(OC(C)=O)CO[C@@H]1C[C@@H]2O`
~40 mg/mL

What value of solubility has been reported for the following molecule? `CC(=O)O[C@@]12CO[C@@H]1C[C@H](O)[C@@]1(C)C(=O)[C@H](O)C3=C(C)[C@@H](OC(=O)[C@H](O)[C@@H](NC(=O)OC(C)(C)C)c4ccccc4)C[C@@](O)([C@@H](OC(=O)c4ccccc4)[C@H]21)C3(C)C`
~40 mg/mL
